Biological target: T1, human PVRIG on FlpinCHO-PVRIG cells (human, UniProt Q6DKI7 41-326)
T1 construct: whole, on cells
T1 sequence (looked up): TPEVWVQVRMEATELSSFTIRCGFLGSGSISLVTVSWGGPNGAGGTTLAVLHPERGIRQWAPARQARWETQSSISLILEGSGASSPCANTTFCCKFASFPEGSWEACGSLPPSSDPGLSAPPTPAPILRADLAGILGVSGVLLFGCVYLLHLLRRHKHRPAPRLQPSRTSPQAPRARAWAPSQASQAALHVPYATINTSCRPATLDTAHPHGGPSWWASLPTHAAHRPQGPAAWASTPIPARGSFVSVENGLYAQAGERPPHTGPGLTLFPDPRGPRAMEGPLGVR
Assay: FACS, FlpinCHO-PVRIG cells
Quantity name: AUC % to COM701-hIgG1 (%)
Write down the numeric answer in % and omit the unit.

Here's what some known entries look like.
# Binder, AUC % to COM701-hIgG1 / %
data = [
    ("PVRIG-A118-H6 (Fc fusion, humanized variant of PVRIG-A118; also called A118.VH6; not shown: constant part not restated for the humanized forms; parents are VHH-hinge-CH2-CH3 of human IgG1; detected by anti-human) EVQLVESGGGLVQPGGSLRLSCAASETYFDLYVMGWYRQAPGKDRELVATITYTGSIKIVDSVKGRFTISRGDAKNSLYLQMNSLRAEDTAVYYCNADPSGLGRKVYWGQGTMVTVSS", 129),
    ("PVRIG-A118-H2 (Fc fusion, humanized variant of PVRIG-A118; also called A118.VH2; not shown: constant part not restated for the humanized forms; parents are VHH-hinge-CH2-CH3 of human IgG1; detected by anti-human) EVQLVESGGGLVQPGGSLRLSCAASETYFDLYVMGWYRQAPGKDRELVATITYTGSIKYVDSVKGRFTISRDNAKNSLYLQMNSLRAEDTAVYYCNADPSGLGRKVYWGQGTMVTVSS", 125),
    ("PVRIG-A50-H1d (Fc fusion, humanized variant of PVRIG-A50; also called A50.VH1d; not shown: constant part not restated for the humanized forms; parents are VHH-hinge-CH2-CH3 of human IgG1; detected by anti-human) EVQLVESGGGLVQPGGSLRLSCAASGFTFSYYDMSWVRQAPGKGLEWVSTINSNGGRTSYVDSVKGRFTISRDNSKNTLYLQMNSLRAEDTAVYYCVEGDPHNFGLESLSLRDFGSWGQGTMVTVSS", 63.1),
]

Just so you know, measured AUC % to COM701-hIgG1 for PVRIG-A50-H1c (Fc fusion, humanized variant of PVRIG-A50; also called A50.VH1c; not shown: constant part not restated for the humanized forms; parents are VHH-hinge-CH2-CH3 of human IgG1; detected by anti-human) EVQLVESGGGLVQPGGSLRLSCAASGFTFSYYDMSWVRQAPGKGLEWVSTINSDGGRTSYVDSVKGRFTISRDNSKNTLYLQMNSLRAEDTAVYYCVEGDPHNFGLENLALRDFGSWGQGTMVTVSS came out at 69.2

Just so you know, measured AUC % to COM701-hIgG1 for PVRIG-A118-H1 (Fc fusion, humanized variant of PVRIG-A118; also called A118.VH1; not shown: constant part not restated for the humanized forms; parents are VHH-hinge-CH2-CH3 of human IgG1; detected by anti-human) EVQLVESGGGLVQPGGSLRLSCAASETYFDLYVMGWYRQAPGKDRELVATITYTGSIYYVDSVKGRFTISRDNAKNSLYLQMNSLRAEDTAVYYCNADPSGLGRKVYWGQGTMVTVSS came out at 127

Just so you know, measured AUC % to COM701-hIgG1 for PVRIG-A50-H1 (Fc fusion, humanized variant of PVRIG-A50; also called A50.VH1; not shown: constant part not restated for the humanized forms; parents are VHH-hinge-CH2-CH3 of human IgG1; detected by anti-human) EVQLVESGGGLVQPGGSLRLSCAASGFTFSYYDMSWVRQAPGKGLEWVSTINSNGGRTSYVDSVKGRFTISRDNSKNTLYLQMNSLRAEDTAVYYCVEGDPHNFGLENLSLRDFGSWGQGTMVTVSS came out at 74.4
